molecular target: Alkaline phosphatase, tissue-nonspecific isozyme (Homo sapiens); test: TNAP enzyme inhibition by screening hits, dose response, selectivity assay for mouse IAP inhibitor project, biochemical, human TNAP, uHTS hits (AID 488906); type: functional
Sequence (P05186 whole entry): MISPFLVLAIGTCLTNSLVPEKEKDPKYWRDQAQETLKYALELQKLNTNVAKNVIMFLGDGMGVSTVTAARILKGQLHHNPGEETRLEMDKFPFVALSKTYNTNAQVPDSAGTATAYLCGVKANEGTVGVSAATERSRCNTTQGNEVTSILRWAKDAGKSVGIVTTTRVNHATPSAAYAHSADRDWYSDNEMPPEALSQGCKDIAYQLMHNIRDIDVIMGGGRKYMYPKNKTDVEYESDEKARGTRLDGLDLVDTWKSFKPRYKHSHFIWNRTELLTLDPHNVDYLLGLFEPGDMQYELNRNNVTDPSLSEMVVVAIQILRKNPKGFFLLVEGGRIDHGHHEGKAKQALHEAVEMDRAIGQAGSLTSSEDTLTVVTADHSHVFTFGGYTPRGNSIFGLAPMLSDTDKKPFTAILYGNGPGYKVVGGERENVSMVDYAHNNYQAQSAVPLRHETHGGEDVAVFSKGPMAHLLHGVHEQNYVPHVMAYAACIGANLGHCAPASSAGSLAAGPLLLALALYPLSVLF
Calls of active or inactive are those of the source.
Your response should consist of one outcome taken from Y (active), N (inactive)

Worked examples follow.
line-notation | tested-on | discrete-label
Cc1ccc(S(=O)(=O)N2CCC(C(=O)Nc3ccc(C(C)C)cc3)CC2)cc1 | Alkaline phosphatase, tissue-nonspecific isozyme (Homo sapiens) | N
Cc1ccc(/C=C2\SC(=S)N(/N=C/c3cc([N+](=O)[O-])ccc3O)C2=O)o1 | Alkaline phosphatase, tissue-nonspecific isozyme (Homo sapiens) | N
O=C(O)CCCN1C(=O)/C(=C/C=C/c2ccco2)SC1=S | Alkaline phosphatase, tissue-nonspecific isozyme (Homo sapiens) | Y

Problem: Please indicate how the test categorized `CCOc1ccccc1CNC(=O)CCNS(=O)(=O)c1ccc2nc(O)oc2c1` .
Result: Y

----------
Entries with reported AC50 on Cytochrome P450 2D6 (Homo sapiens, UniProt P10635)
Sequence (P10635 whole entry): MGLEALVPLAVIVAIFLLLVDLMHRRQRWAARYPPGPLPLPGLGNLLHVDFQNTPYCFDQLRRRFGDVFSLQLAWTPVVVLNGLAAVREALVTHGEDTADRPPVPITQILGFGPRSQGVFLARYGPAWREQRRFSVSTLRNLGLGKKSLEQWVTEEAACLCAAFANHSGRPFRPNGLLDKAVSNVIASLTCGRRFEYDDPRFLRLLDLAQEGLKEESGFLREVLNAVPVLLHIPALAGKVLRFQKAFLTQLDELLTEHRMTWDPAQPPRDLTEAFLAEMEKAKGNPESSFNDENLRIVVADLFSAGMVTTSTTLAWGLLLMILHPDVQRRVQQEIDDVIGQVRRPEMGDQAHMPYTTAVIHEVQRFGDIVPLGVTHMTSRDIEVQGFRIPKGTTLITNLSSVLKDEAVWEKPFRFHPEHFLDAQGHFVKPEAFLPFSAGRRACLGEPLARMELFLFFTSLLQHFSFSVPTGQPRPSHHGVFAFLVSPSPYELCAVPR

line-notation | readout-type | observed-result
Cc1cc(C)c(/C=C2/C(=O)Nc3ccccc32)[nH]1 | AC50 | 0.398 µM (inconclusive)
COc1ccc(/C=N/Nc2snc(SC)c2C#N)cc1OC | AC50 | 0.282 µM (inconclusive)
CCN1CCN(c2nn3c(=O)c4ccccc4nc3c3ccccc23)CC1 | AC50 | 14.1 µM (inconclusive)
Cc1sc(NC(=O)C2CCCCC2)c(C#N)c1-c1ccccc1 | AC50 | 7.08 µM (inconclusive)
COc1ccc(-n2c(=O)c(CCc3ccccc3)nc3cnc(OC)nc32)cc1 | AC50 | 20 µM (inconclusive)

# batch: return AC50 for each of the 5 compounds below
1. Cn1c(=O)c2cc(S(=O)(=O)NCCC(=O)N3CC=C(c4ccccc4)CC3)ccc2n(C)c1=O
2. CC(/C=C/c1ccccc1)=N/NC(=O)CNC(=O)c1ccc2c(c1)OCO2
3. c1ccc2sc(N3CCN(Cc4ccc5c(c4)OCO5)CC3)nc2c1
4. Cn1c(CC(=O)Nc2ccc(Cl)c(Cl)c2)nnc1SCC(=O)N1CCN(c2ccccc2)CC1
5. CC(=O)OC[C@H]1O[C@@H](O/N=C2/[C@H]3O[C@@H]3[C@@H](O)[C@H]3[C@H]2CCn2c(=O)n(-c4ccccc4)c(=O)n23)[C@H](OC(C)=O)[C@@H](OC(C)=O)[C@@H]1OC(C)=O

Result:
17.8 µM (inconclusive)
0.0501 µM (inconclusive)
39.8 µM (inconclusive)
25.1 µM (inconclusive)
3.16 µM (inconclusive)

----------
Kindly supply the reported EC50 values for the records listed here.
biological target: Protein RecA (Mycobacterium tuberculosis, UniProt P9WHJ3); experiment: Fluorescence Cell-Free Homogeneous Dose Retest to Identify Inhibitors of RecA-Intein Splicing Activity. [Related pubchem assays (depositor defined):AID2097, AID2223, AID489010, AID492950]; assay type: functional
Active and inactive are the calls of the source.

# annotated cases, reported EC50 shown
line-notation | observed-result
Cc1cc(C(c2ccc(O)cc2)c2cc(C)c(O)cc2C)c(C)cc1O | 100 µM (active)
Cc1nnc(NC(=O)c2nc(S(=O)(=O)Cc3ccccc3)ncc2Cl)s1 | 4.01 µM (active)
c1ccc(CNc2nc(NCc3ccccc3)c3ccccc3n2)cc1 | 7.83 µM (active)

Here is the next item to consider.
Problem: Look up and state reported EC50 for `O=C(Cc1cc(O)[nH]n1)N/N=C/C=C/c1ccccc1`
Result: 2.76 µM (active)

----------
target: Sentrin-specific protease 8 (Homo sapiens); format: functional;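 also: luminescence read-out of SENP8 inhibition, dose-response confirmation following an ultra-high-throughput screen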
Sequence (Q96LD8 whole entry): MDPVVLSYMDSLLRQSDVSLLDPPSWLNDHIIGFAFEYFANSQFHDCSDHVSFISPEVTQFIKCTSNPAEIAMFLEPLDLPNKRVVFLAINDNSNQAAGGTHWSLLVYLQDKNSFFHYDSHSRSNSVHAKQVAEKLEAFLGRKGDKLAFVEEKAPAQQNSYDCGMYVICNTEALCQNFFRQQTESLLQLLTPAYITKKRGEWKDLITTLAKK
Activity calls are given as the source filed them.
Your response should consist of one outcome taken from active, inactive

line-notation | tested-on | discrete-label
O=C(Nc1ccccc1Cl)Nc1cccc2cccnc12 | Sentrin-specific protease 8 (Homo sapiens) | active
COc1ccc(-c2nc3ccccc3c(=O)[nH]2)cc1 | Sentrin-specific protease 8 (Homo sapiens) | inactive
O=[N+]([O-])c1nn(-c2ccc3c(c2)OCCO3)[n+]([O-])c1NCc1ccccc1Cl | Sentrin-specific protease 8 (Homo sapiens) | inactive
CN(c1ccccc1)c1ccc(/C=N/N2CCOCC2)cc1 | Sentrin-specific protease 8 (Homo sapiens) | active

Problem: Please indicate how the test categorized `Clc1ccc(OCc2nc(-c3ccncc3)no2)c(Cl)c1` .
Result: active

Problem: Please indicate how the test categorized `Cc1cccc(C(=O)n2c(=S)nc3cc(C)ccn32)c1` .
Result: inactive

Problem: Please indicate how the test categorized `CCc1ccc(-c2csc(NC(=O)C3=COCCO3)n2)cc1` .
Result: active

----------
target: 5-hydroxytryptamine receptor 2A (Mus musculus, UniProt P35363); format: functional, cell-based;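 also: CHO-K1 cells with tagged receptor and beta-arrestin; agonist potency measured as compound-induced activation of the receptor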
Sequence (P35363 whole entry): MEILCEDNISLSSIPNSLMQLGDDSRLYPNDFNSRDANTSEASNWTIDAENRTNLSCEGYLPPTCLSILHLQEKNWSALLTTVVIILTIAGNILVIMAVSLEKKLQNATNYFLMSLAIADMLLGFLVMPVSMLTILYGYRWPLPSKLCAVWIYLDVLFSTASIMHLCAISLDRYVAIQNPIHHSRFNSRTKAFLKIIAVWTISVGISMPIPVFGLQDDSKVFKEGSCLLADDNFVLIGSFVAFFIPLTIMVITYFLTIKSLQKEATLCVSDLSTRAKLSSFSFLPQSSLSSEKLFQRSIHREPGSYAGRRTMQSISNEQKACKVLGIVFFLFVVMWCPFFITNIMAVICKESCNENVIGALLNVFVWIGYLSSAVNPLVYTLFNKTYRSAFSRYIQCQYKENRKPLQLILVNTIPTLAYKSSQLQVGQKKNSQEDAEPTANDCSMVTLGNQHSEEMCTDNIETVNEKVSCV
Calls of active or inactive are those of the source.
Kindly supply the reported EC50 values for the records listed here.

# annotated cases, reported EC50 shown
molecule | observed-result
O=S(=O)(c1ccc(OCC(O)CN2CCN(c3ccccc3)CC2)cc1)N1CCOCC1 (centres undefined) | 481 nM (active)
Cc1cc(N/N=C/c2ccc(O)c(C)c2O)nc(-c2ccccc2O)n1 | 7600 nM (active)
CN(C)S(=O)(=O)c1ccc(Cl)c(NC(=O)CN2CCc3ccccc3C2)c1 | 1750 nM (active)

Problem: Look up and state reported EC50 for O=C(NCCN1CCN(c2ccccc2F)CC1)C1CCCN(S(=O)(=O)c2c[nH]cn2)C1 (centres undefined)
Result: 895 nM (active)

----------
experiment: C. albicans growth with fluconazole, confirmation, fluorescence, retest (AID 2467); assay type: functional, cell-based
Calls of active or inactive are those of the source.
readout-type: EC50

# annotated cases, reported EC50 shown
line-notation | observed-result
CC/C(=N/NC(=O)c1ccccc1O)c1c(C)nn(-c2ccccc2)c1O | 0.114 µM (active)
Oc1ccc(N2CCN(c3ncnc4sc(-c5ccccc5)cc34)CC2)cc1 | 1.21 µM (active)
c1ccc(CNc2nc(NCc3ccccc3)c3ccccc3n2)cc1 | > 38 µM (not active)
CN(C)S(=O)(=O)c1cccc(NC(=S)N/N=C/c2ccc(O)c(O)c2O)c1 | > 38 µM (not active)

Here is the next item to consider.
Problem: Look up and state reported EC50 for `Cc1ccc(/C=C2\SC(=S)N(/N=C/c3cc([N+](=O)[O-])ccc3O)C2=O)o1`
Result: 27.8 µM (active)

----------
target: UniProtKB P09923; test: inhibition of human intestinal alkaline phosphatase – biochemical, dose response (AID 488876); type: functional
Sequence (P09923 whole entry): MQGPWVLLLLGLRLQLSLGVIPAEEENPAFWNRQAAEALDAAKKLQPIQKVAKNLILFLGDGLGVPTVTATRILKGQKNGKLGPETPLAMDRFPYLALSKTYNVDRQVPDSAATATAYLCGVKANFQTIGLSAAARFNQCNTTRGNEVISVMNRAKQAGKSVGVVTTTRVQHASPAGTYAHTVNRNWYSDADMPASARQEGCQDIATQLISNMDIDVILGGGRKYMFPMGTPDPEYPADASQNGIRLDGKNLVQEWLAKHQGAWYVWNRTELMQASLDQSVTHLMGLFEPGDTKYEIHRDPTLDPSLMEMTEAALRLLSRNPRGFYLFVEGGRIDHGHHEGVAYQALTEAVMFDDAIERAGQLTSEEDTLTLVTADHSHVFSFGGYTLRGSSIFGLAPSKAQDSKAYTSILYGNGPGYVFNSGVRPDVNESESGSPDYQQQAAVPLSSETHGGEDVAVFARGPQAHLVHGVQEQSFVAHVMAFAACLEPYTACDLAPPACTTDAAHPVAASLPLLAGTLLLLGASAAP
Calls of active or inactive are those of the source.
Your response should consist of one outcome taken from True (active), False (inactive)

Worked examples follow.
line-notation | discrete-label
Cc1ccc(S(=O)(=O)N2CCC(C(=O)Nc3ccc(C(C)C)cc3)CC2)cc1 | False
Cc1ccc(/C=C2\SC(=S)N(/N=C/c3cc([N+](=O)[O-])ccc3O)C2=O)o1 | True
O=C(O)CCCN1C(=O)/C(=C/C=C/c2ccco2)SC1=S | False

Would you kindly look at the next entry?
Problem: Please indicate how the test categorized `CCOc1ccccc1CNC(=O)CCNS(=O)(=O)c1ccc2nc(O)oc2c1` .
Result: False

----------
target: Sentrin-specific protease 7 (Homo sapiens, UniProt Q9BQF6); format: functional;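 also: Luminescence-based dose-response confirmation of ultra-high-throughput screening hits, measuring inhibition of SENP7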
Sequence (Q9BQF6 whole entry): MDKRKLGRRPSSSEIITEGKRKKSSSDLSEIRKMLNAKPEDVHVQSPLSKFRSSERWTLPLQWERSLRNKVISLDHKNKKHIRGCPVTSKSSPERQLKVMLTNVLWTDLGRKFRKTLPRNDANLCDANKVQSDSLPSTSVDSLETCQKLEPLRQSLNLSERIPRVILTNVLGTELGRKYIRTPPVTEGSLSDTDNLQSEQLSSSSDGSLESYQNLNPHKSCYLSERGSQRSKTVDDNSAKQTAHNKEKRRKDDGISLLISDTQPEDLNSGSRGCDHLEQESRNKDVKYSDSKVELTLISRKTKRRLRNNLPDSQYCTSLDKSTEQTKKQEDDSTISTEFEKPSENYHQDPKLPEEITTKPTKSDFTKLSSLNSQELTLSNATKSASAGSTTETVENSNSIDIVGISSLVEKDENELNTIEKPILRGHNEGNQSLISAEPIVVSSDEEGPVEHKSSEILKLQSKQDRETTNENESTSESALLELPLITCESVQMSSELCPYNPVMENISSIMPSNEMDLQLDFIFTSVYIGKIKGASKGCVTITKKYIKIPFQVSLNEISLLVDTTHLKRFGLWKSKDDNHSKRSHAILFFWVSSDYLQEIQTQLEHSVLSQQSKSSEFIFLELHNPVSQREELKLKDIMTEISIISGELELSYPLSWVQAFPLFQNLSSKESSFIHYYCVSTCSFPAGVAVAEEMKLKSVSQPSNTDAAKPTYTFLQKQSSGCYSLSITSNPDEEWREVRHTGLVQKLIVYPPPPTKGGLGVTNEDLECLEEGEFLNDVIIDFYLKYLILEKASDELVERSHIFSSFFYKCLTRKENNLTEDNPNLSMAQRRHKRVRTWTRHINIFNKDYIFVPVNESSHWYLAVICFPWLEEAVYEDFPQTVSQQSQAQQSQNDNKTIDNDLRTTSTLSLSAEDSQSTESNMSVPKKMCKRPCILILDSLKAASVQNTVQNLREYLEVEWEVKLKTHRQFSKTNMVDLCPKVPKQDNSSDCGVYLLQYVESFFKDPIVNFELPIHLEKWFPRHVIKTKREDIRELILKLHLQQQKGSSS
The source made the active and inactive calls.
Kindly supply the reported IC50 values for the records listed here.

# batch: return IC50 for each of the 5 compounds below
1. Cc1cccc(C(=O)n2c(=S)nc3cc(C)ccn32)c1
2. O=C(Nc1ccccc1Cl)Nc1cccc2cccnc12
3. Clc1ccc(OCc2nc(-c3ccncc3)no2)c(Cl)c1
4. CN(c1ccccc1)c1ccc(/C=N/N2CCOCC2)cc1
5. CCc1ccc(-c2csc(NC(=O)C3=COCCO3)n2)cc1

Result:
1. 11 µM (active)
2. 7.41 µM (active)
3. 9.12 µM (active)
4. 8.89 µM (active)
5. 6.81 µM (active)

# batch: return IC50 for each of the 2 compounds below
1. O=[N+]([O-])c1nn(-c2ccc3c(c2)OCCO3)[n+]([O-])c1NCc1ccccc1Cl
2. COc1ccc(-c2nc3ccccc3c(=O)[nH]2)cc1

Result:
1. 3.36 µM (active)
2. 6.89 µM (active)

----------
molecular target: UniProtKB P11940; test: PABP1 MLLE–PAM2 binding inhibitor potency, dose response, biochemical, fluorescence polarization, FITC-PAM2 peptide (AID 602259); assay type: functional; conditions: read-out: IC50_Mean
Sequence (P11940 whole entry): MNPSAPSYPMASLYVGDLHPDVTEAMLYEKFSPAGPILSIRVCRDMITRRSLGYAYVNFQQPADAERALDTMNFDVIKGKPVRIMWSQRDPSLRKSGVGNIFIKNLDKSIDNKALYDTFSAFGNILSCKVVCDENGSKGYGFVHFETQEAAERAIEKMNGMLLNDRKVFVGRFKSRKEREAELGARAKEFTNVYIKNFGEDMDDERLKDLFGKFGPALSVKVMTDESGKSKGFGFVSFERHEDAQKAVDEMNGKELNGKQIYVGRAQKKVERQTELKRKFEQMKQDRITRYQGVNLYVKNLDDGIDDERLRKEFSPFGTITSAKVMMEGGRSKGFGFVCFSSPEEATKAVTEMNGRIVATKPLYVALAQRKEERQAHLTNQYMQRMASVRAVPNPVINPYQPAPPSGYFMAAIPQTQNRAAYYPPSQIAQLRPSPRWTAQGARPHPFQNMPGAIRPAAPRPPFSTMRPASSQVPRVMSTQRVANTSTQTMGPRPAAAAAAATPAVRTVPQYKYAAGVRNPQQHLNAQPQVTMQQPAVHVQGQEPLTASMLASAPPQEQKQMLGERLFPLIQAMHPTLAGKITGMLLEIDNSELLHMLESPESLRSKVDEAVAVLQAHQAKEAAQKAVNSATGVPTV
Calls of active or inactive are those of the source.
Kindly supply the reported IC50 values for the records listed here.

# annotated cases, reported IC50 shown
compound | IC50
Cc1cc2cc(CNC(=O)Cc3cccs3)ccc2n1C | > 66 µM (inactive)
O=C(NC(=S)N1CCCCCC1)c1ccccc1Cl | > 66 µM (inactive)
O=C1C(Cl)=C(N2CCN(Cc3ccccc3)CC2)C(=O)N1Cc1ccccc1 | > 66 µM (inactive)
COc1ccc(Nc2cc(Cl)ccc2C(=O)O)cn1 | 52.2 µM (inactive)
NC(=S)c1cnn2c(-c3cccc(C(F)(F)F)c3)ccnc12 | > 66 µM (inactive)
CC1CCN(C(=O)CSc2nncn2-c2ccccn2)CC1 | > 66 µM (inactive)
Cc1ccccc1NC(=O)CSC(=O)c1ccccc1 | > 66 µM (inactive)
O=C(O)CN1C(=O)C2C3CC(C2C1=O)C1C(c2ccc(F)cc2)c2sc(O)nc2SC31 (centres undefined) | > 66 µM (inactive)

Here is the next item to consider.
Problem: Look up and state reported IC50 for COc1ccc(-c2nc(C[S+]([O-])CC(=O)NCc3ccccn3)c(C)o2)cc1 (centres undefined)
Result: 29.4 µM (inactive)
